- condition-summary: in water, 303.15 K
readout-kind: solubility (mole fraction)

Indicate its recorded solubility (mole fraction); the compound in question is NC(=O)N/N=C/c1ccc([N+](=O)[O-])o1
3.66e-05

###

- condition-summary: in isopropanol, 283.15 K
readout-kind: solubility (mole fraction)

Give the value of solubility (mole fraction) reported for the following: NC(=O)N/N=C/c1ccc([N+](=O)[O-])o1
9.57e-05

###

- condition-summary: in formamide, 298.15 K
readout-kind: solubility (mole fraction)

Write down solubility (mole fraction) measured for item NC(=O)N/N=C/c1ccc([N+](=O)[O-])o1
0.00267

###

- condition-summary: in formamide, 288.15 K
readout-kind: solubility (mole fraction)

Item NC(=O)N/N=C/c1ccc([N+](=O)[O-])o1 : provide solubility (mole fraction)
0.00208
